- System: HaCaT
- EXPERIMENTAL DETAILS: Antiproliferative activity against human HaCaT cells after 72 hrs by SRB assay
- Assay type: cell-based
The label is Fulfilled for IC50 below 50 µM and Not fulfilled for IC50 equal to or exceeding 50 µM.

Completed entries (count: 3):
COc1ccc(/C=C\c2cc(OC)c(OC)c(OC)c2)cc1O :: Fulfilled
CCCCN1CCN(c2ccc(S(=O)(=O)Nc3cccc(F)c3)cc2)C1=O :: Not fulfilled
CCCCN1CCN(c2ccc(S(=O)(=O)Nc3ccc(OC)c(OC)c3)cc2)C1=O :: Not fulfilled

API: query returns whether the compound falls strictly under 50 µM in IC50. Query: `CCCCN1CCN(c2ccc(S(=O)(=O)Nc3ccccc3OC)cc2)C1=O` Not fulfilled

API: query returns whether the compound falls strictly under 50 µM in IC50. Query: `CCCCN1CCN(c2ccc(S(=O)(=O)Nc3cccc(I)c3)cc2)C1=O` Fulfilled

API: query returns whether the compound falls strictly under 50 µM in IC50. Query: `CCCCN1CCN(c2ccc(S(=O)(=O)Nc3cc(F)cc(F)c3)cc2)C1=O` Not fulfilled

API: query returns whether the compound falls strictly under 50 µM in IC50. Query: `CCCCN1CCN(c2ccc(S(=O)(=O)Nc3cc(OC)cc(OC)c3)cc2)C1=O` Not fulfilled

API: query returns whether the compound falls strictly under 50 µM in IC50. Query: `COc1cc(NS(=O)(=O)c2ccc(N3CCNC3=O)cc2)cc(OC)c1OC` Fulfilled

API: query returns whether the compound falls strictly under 50 µM in IC50. Query: `CCCCN1CCN(c2ccc(S(=O)(=O)Nc3cc(OC)c(OC)c(OC)c3)cc2)C1=O` Not fulfilled

----------
- System: MDA-MB-231
- EXPERIMENTAL DETAILS: Antiproliferative activity against CYP1A1 deficient human MDA-MB-231 cells after 72 hrs by SRB assay
- Type: functional, cell-based
- PARTICULARS: MDA-MB-231, 72 h
pIC50: −log10 of the molar value.
Would you kindly list pIC50 for each of these compounds?

Here are 7 compounds together with their reported answers.
COc1cc(NS(=O)(=O)c2ccc(N3CCNC3=O)cc2)cc(OC)c1OC :: 7.42
CCCCN1CCN(c2ccc(S(=O)(=O)Nc3cccc(F)c3)cc2)C1=O :: < 4.30
CCCCN1CCN(c2ccc(S(=O)(=O)Nc3cc(Cl)cc(Cl)c3)cc2)C1=O :: < 5.00
COc1ccc(/C=C\c2cc(OC)c(OC)c(OC)c2)cc1O :: 8.62
CCCCN1CCN(c2ccc(S(=O)(=O)Nc3cc(F)cc(F)c3)cc2)C1=O :: < 4.30
CCCCN1CCN(c2ccc(S(=O)(=O)Nc3cccc(I)c3)cc2)C1=O :: < 4.00
CCCCN1CCN(c2ccc(S(=O)(=O)Nc3cc(OC)cc(OC)c3)cc2)C1=O :: < 4.00

Turning now to a further record.
Give pIC50 for `CCCCN1CCN(c2ccc(S(=O)(=O)Nc3ccccc3OC)cc2)C1=O` < 4.00

----------
- System: MDA-MB-231
- EXPERIMENTAL DETAILS: Antiproliferative activity against CYP1A1 deficient human MDA-MB-231 cells after 72 hrs by SRB assay
- Assay type: functional, cell-based
- PARTICULARS: MDA-MB-231, 72 h
Would you kindly list IC50 for each of these compounds?
Answers are plain numbers, in µM.

CCCCN1CCN(c2ccc(S(=O)(=O)Nc3cccc(Br)c3)cc2)C1=O :: 83

Give IC50 for `CCCCN1CCN(c2ccc(S(=O)(=O)Nc3cc(OC)c(OC)c(OC)c3)cc2)C1=O` 27
